System: Enterococcus sp.
Experiment: in vitro antibacterial evaluation, MIC by broth dilution
Format: cell-based
Conditions: strain ATCC 29212; broth dilution, 18 hours at 35° C.
Numbered stars: 1 amine (or outer) side, 2 acyl side, 3 side chain; on linkers, the order of the positions; unused ones are H or OH. Square brackets hold non-standard residues; d marks the D form. Peptide text beside a SMILES is read from it. ξ: configuration not given here. X1 = N=C1NCC(C(O)C(N[*:1])C(=O)[*:2])N1C1OC(CO)C(O)C(O)C1O; ξEnduracididine(βξ-OH,4'ξ) = N=C1NCC(C(O)C(N)C(=O)O)N1; ξCha(3ξ-Me) = CC(C1CCCCC1)C(N)C(=O)O; Cha = N[CH](CC1CCCCC1)C(=O)O
observable: MIC Enterococcus faecalis (ATCC 29212) (µg/mL)
# output: bare number, implied unit µg/mL

CC(C1CCCCC1)C1NC(=O)CNC(=O)C(CO)NC(=O)C(C(O)C2CNC(=N)N2C2OC(CO)C(O)C(O)C2O)NC(=O)C(C(O)C2CNC(=N)N2)NC(=O)C(CC2CCCCC2)NC1=O (stereo not drawn) [Example 53] (cyclo(G[ξCha(3ξ-Me)][Cha][ξEnduracididine(βξ-OH,4'ξ)][X1]S); configuration not given here) :: 8

In plain terms, Cc1cc(C2OCC3OC(OC4C(CO)OC(Oc5ccc(CC6NC(=O)C(C(C)c7ccccc7)NC(=O)CNC(=O)C(CO)NC(=O)C(C(O)C7CNC(=N)N7C7OC(CO)C(O)C(O)C7O)NC(=O)C(C(O)C7CNC(=N)N7)NC6=O)cc5)C(O)C4O)C(O)C(O)C3O2)ccc1[N+](=O)[O-] (stereo not shown) has a documented MIC Enterococcus faecalis (ATCC 29212) of 32

---

Tested on: Staphylococcus sp.
Assay: in vitro antibacterial evaluation, MIC by broth dilution
Assay type: cell-based
Details: strain GC 4541; broth dilution, 18 hours at 35° C.
Text: Methods for in vitro Antibacterial Evaluation (Table 1) […]
observable: MIC Staphylococcus aureus (GC 4541) (µg/mL)
# output: bare number, implied unit µg/mL

CCCC(C)C1OCC2OC(OC3C(CO)OC(Oc4ccc(CC5NC(=O)C(C(C)c6ccc(Cl)cc6)NC(=O)CNC(=O)C(CO)NC(=O)C(C(O)C6CNC(=N)N6C6OC(CO)C(O)C(O)C6O)NC(=O)C(C(O)C6CNC(=N)N6)NC5=O)cc4)C(O)C3O)C(O)C(O)C2O1 (stereo not drawn) :: 0.5
CC(c1ccccc1)C1NC(=O)CNC(=O)C(CO)NC(=O)C(C(O)C2CNC(=N)N2C2OC(CO)C(O)C(O)C2O)NC(=O)C(C(O)C2CNC(=N)N2)NC(=O)C(Cc2ccc(OC3OC(CO)C(OC4OC5COC6(CCCCC6(C)C)OC5C(O)C4O)C(O)C3O)cc2)NC1=O (stereo not drawn) :: 2

Now look at this entry.
Assay Staphylococcus sp., sample CC(c1ccccc1)C1NC(=O)CNC(=O)C(CO)NC(=O)C(C(O)C2CNC(=N)N2C2OC(CO)C(O)C(O)C2O)NC(=O)C(C(O)C2CNC(=N)N2)NC(=O)C(Cc2ccc3oc(SCc4ccc5ccccc5c4)nc3c2)NC1=O (stereo not drawn) , MIC Staphylococcus aureus (GC 4541) read: 8

---

Tested on: Staphylococcus sp.
Assay: in vitro antibacterial evaluation, MIC by broth dilution
Assay type: cell-based
Conditions: strain GC 6257; broth dilution, 18 hours at 35° C.
observable: MIC Coagulase Negative Staphylococcus (GC 6257) (µg/mL)
# output: bare number, implied unit µg/mL

CC(c1ccccc1)C1NC(=O)CNC(=O)C(CO)NC(=O)C(C(O)C2CNC(=N)N2C2OC(CO)C(O)C(O)C2O)NC(=O)C(C(O)C2CNC(=N)N2)NC(=O)C(Cc2ccc3oc(-c4ccoc4)nc3c2)NC1=O (stereo not shown) [Example 38] :: 16
CC(c1ccccc1)C1NC(=O)CNC(=O)C(CO)NC(=O)C(C(O)C2CNC(=N)N2C2OC(CO)C(O)C(O)C2O)NC(=O)C(C(O)C2CNC(=N)N2)NC(=O)C(Cc2ccc(OC3OC(CO)C(OC4OC5COC(c6cccc(Oc7cccc(C(F)(F)F)c7)c6)OC5C(O)C4O)C(O)C3O)cc2)NC1=O (stereo not shown) [Example 184] :: 16

In plain terms, CC(c1ccccc1)C1NC(=O)CNC(=O)C(CO)NC(=O)C(C(O)C2CNC(=N)N2C2OC(CO)C(O)C(O)C2O)NC(=O)C(C(O)C2CNC(=N)N2)NC(=O)C(Cc2ccc(OC3OC(CO)C(OC4OC5COC6(CCC(C(C)(C)C)CC6)OC5C(O)C4O)C(O)C3O)cc2)NC1=O (stereo not shown) [Example 208] has a documented MIC Coagulase Negative Staphylococcus (GC 6257) of 4

The measurements presented in this section are drawn from patent US6914045B2.
